B1: CPOX (parent)
chain: HAPTIHFNYRYFEVEEADGNKQWW

Variants of: B1
Experiment: protein stability index of a GFP-peptide fusion (GPS, HEK-293T) (PSI 1-6); higher = more stable;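 also: lentivirally expressed fusions sorted by FACS into six bins by GFP to DsRed ratio, PSI derived from sequencing read proportions per bin multiplied by bin number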
Conditions: c terminus: a fixed tail appended
Experimental Readout: protein stability index

query: Value lookup for protein stability index; key = F7C
result: 2.35

query: Which value of protein stability index has been reported for Q22I in the records?
result: 2.3

query: What value of measured protein stability index is listed for D18E ?
result: 2.63

query: Reported protein stability index for Y11N : what is it?
result: 2.98

Where do these numbers come from? They come from the supplement of paper PMC10567573.
